# ASSAY_OVERVIEW: Pharmacokinetic evaluation in mice
# Type: in vivo, male ICR mice
# MEASUREMENT_CONDITIONS: male, ICR, mouse, plasma, iv, 2 mg/kg
Assign half-life to each entry below.
Give bare numbers, in h.

A selection of reference data follows.
1. C=CC(=O)N1CC2(CCN(c3nc(N4CC(N5CCCC5)C4)nc4c(OCC(F)(F)F)c(-c5c(C)ccc6[nH]ncc56)c(C5CC5)cc34)CC2)C1 [Compound 171] ... 4.85
2. C=CC(=O)N1CC2(CCN(c3nc(OC4CC5(CCN(CCOC)CC5)C4)nc4c(OCC(F)(F)F)c(-c5c(C)ccc6[nH]ncc56)c(C5CC5)cc34)CC2)C1 [Compound 131] ... 4.12
3. C=CC(=O)N1CC2(CCN(c3nc(N4CC(N5CCC5)C4)nc4c(OCC(F)(F)F)c(-c5c(C)ccc6[nH]ncc56)c(C5CC5)cc34)CC2)C1 [Compound 142] ... 3.31

Query: For C=CC(=O)N1CC2(CCN(c3nc(OC4CCN(CCOC)CC4)nc4c(OCC(F)(F)F)c(-c5c(C)ccc6[nH]ncc56)c(C5CC5)cc34)CC2)C1 [B, reference compound] , what is its reported half-life?
Reply: 4.47

====

# System: pERK level in H358 cells
# ASSAY_OVERVIEW: pERK and ERK protein content assay in H358 cells (ELISA)
# Format: cell-based
# MEASUREMENT_CONDITIONS: Homo sapiens, NCI-H358, compound 1 μM, 24 h, pERK/ERK ratio compared with DMSO group, read-out: Inhibition rate (%) of pERK level
For each record, write down the corresponding inhibition at 1 µM.

Study these solved cases before continuing.
1) C=CC(=O)N1CC2(CCN(c3nc(O[C@@H]4CCS(=O)(=O)C[C@H]4N(C)C)nc4c(OCC(F)(F)F)c(-c5c(C)ccc6[nH]ncc56)c(C5CC5)cc34)CC2)C1 ... > 90%
2) C=C(F)C(=O)N1CC2(CCN(c3nc(OC4CCN(CCOC)CC4)nc4c(OCC(F)(F)F)c(-c5c(C)ccc6cc[nH]c(=O)c56)c(C5CC5)cc34)CC2)C1 ... > 90%
3) C=C(C(=O)N1CC2(CCN(c3nc(OC4CCN(CCOC)CC4)nc4c(OCC(F)(F)F)c(-c5c(C)ccc6[nH]ncc56)c(C5CC5)cc34)CC2)C1)n1cccc1 ... 50 to 90%
4) C=C(F)C(=O)N1CC2(CCN(c3nc(OC4CCN(CCOC)CC4)nc4c(OCC(F)(F)F)c(-c5c(F)ccc6cn[nH]c56)c(C5CC5)cc34)CC2)C1 ... > 90%
5) C=CC(=O)N1CC2(CCN(c3nc(N4CC5(CSC5)C4)nc4c(OCC(F)(F)F)c(-c5c(C)ccc6[nH]ncc56)c(C5CC5)cc34)CC2)C1 ... 50 to 90%

Provide inhibition at 1 µM for all items below, preserving their order.
1. C=CC(=O)N1CC2(CCN(c3nc(N(C)CCN4CC[C@H](O)C4)nc4c(OCC(F)(F)F)c(-c5c(C)ccc6[nH]ncc56)c(C5CC5)cc34)CC2)C1
2. C=CC(=O)N1CC2(CCN(c3nc(N4CC(N5C6CCC5CC6)C4)nc4c(OCC(F)(F)F)c(-c5c(C)c(F)cc6[nH]ncc56)c(C5CC5)cc34)CC2)C1
3. C=CC(=O)N1CC2(CCN(c3nc(N4CC(N5CCC(F)(F)CC5)C4)nc4c(OCC(F)(F)F)c(-c5c(C)ccc6[nH]ncc56)c(C5CC5)cc34)CC2)C1
4. C=C(F)C(=O)N1CC2(CCN(c3nc(OC4CCN(CCOC)CC4)nc4c(OCC(F)F)c(-c5c(C)ccc6[nH]ncc56)c(C5CC5)cc34)CC2)C1

Reply:
1: > 90%; 2: > 90%; 3: > 90%; 4: > 90%

Working through the 2 compounds below one at a time, give inhibition at 1 µM for each.
1. C=C(F)C(=O)N1CC2(CCN(c3nc(N4CC5(COC5)C4)nc4c(OCC(F)(F)F)c(-c5c(C)ccc6[nH]ncc56)c(C5CC5)cc34)CC2)C1
2. C=CC(=O)N1CC2(CCN(c3nc(N4CC[C@@H](N5CC(C)C5)C4)nc4c(OCC(F)(F)F)c(-c5c(C)ccc6[nH]ncc56)c(C5CC5)cc34)CC2)C1

Reply:
["50 to 90%", "> 90%"]

====

Please go through the items and note down their inhibition at 1 µM.
# Tested on: pERK level in H358 cells
# ASSAY_OVERVIEW: pERK and ERK protein content assay in H358 cells (ELISA)
# Type: cell-based
# MEASUREMENT_CONDITIONS: Homo sapiens, NCI-H358, compound 1 μM, 24 h, pERK/ERK ratio compared with DMSO group, read-out: Inhibition rate (%) of pERK level

1) C=CC(=O)N1CC2(CCN(c3nc(N4CC5(C4)[C@@H](O)CCN5C)nc4c(OCC(F)(F)F)c(-c5c(C)ccc6[nH]ncc56)c(C5CC5)cc34)CC2)C1 ... > 90%

// for each compound in input: emit inhibition at 1 µM
1. C=CC(=O)N1CC2(CCN(c3nc(N4CC5(C4)[C@H](O)CCN5C)nc4c(OCC(F)(F)F)c(-c5c(C)ccc6[nH]ncc56)c(C5CC5)cc34)CC2)C1
2. C=CC(=O)N1CC2(CCN(c3nc(O[C@@H]4C[C@@H]5C[C@H]4CS5(=O)=O)nc4c(OCC(F)(F)F)c(-c5c(C)ccc6[nH]ncc56)c(C5CC5)cc34)CC2)C1
3. C=C(F)C(=O)N1CC2(CCN(c3nc(N4CC5(CN(C)C5)C4)nc4c(OCC(F)(F)F)c(-c5c(C)ccc6[nH]ncc56)c(C5CC5)cc34)CC2)C1
4. C=CC(=O)N1CC2(CCN(c3nc(N4CC(N5CCCC5)C4)nc4c(OCC(F)(F)F)c(-c5c(C)ccc6[nH]ncc56)c(C=C)cc34)CC2)C1
5. C=C(F)C(=O)N1CC2(CCN(c3nc(N4CCC5(CCN(CCOC)CC5)CC4)nc4c(OCC(F)(F)F)c(-c5c(C)ccc6[nH]ncc56)c(C5CC5)cc34)CC2)C1
6. C=C(F)C(=O)N1CC2(CCN(c3nc(N4CC5(CCN(CCCOC)CC5)C4)nc4c(OCC(F)(F)F)c(-c5c(C)ccc6[nH]ncc56)c(C5CC5)cc34)CC2)C1
7. C=CC(=O)N1CC2(CCN(c3nc(N4CCC5(CN(C)C5)C4)nc4c(OCC(F)(F)F)c(-c5c(C)ccc6[nH]ncc56)c(C5CC5)cc34)CC2)C1

Reply:
> 90%
> 90%
> 90%
> 90%
50 to 90%
> 90%
50 to 90%

====

# Tested on: pERK level in H358 cells
# ASSAY_OVERVIEW: pERK and ERK protein content assay in H358 cells (ELISA)
# Assay type: cell-based
# MEASUREMENT_CONDITIONS: Homo sapiens, NCI-H358, compound 1 μM, 24 h, pERK/ERK ratio compared with DMSO group, read-out: Inhibition rate (%) of pERK level
Task for the reader: assign each of the following compounds its reported inhibition at 1 µM.

Study these solved cases before continuing.
1. C=C(F)C(=O)N1CC2(CCN(c3nc(N4CC(N(C)CCOC)C4)nc4c(OCC(F)(F)F)c(-c5c(C)ccc6[nH]ncc56)c(C5CC5)cc34)CC2)C1 ... > 90%
2. C=CC(=O)N1CC2(CCN(c3nc(N4CC5(CCCO5)C4)nc4c(OCC(F)(F)F)c(-c5c(C)ccc6[nH]ncc56)c(C5CC5)cc34)CC2)C1 ... > 90%
3. C=C(F)C(=O)N1CC2(CCN(c3nc(OC4CC5(CCN(C)CC5)C4)nc4c(OCC(F)(F)F)c(-c5c(C)ccc6[nH]ncc56)c(C5CC5)cc34)CC2)C1 ... > 90%

Please report inhibition at 1 µM for every entry that follows.
1. C=C(C(=O)N1CC2(CCN(c3nc(OC4CCN(CCOC)CC4)nc4c(OCC(F)(F)F)c(-c5c(C)ccc6[nH]ncc56)c(C5CC5)cc34)CC2)C1)n1ccnn1
2. C=C(F)C(=O)N1CC2(CCN(c3nc(N4CC5(CCN(CC6CC6)CC5)C4)nc4c(OCC(F)(F)F)c(-c5c(C)ccc6[nH]ncc56)c(C5CC5)cc34)CC2)C1

Reply:
1: > 90%; 2: > 90%

====

# Test system: pERK level in H358 cells
# ASSAY_OVERVIEW: pERK and ERK protein content assay in H358 cells (ELISA)
# Format: cell-based
# MEASUREMENT_CONDITIONS: Homo sapiens, NCI-H358, compound 1 μM, 24 h, pERK/ERK ratio compared with DMSO group, read-out: Inhibition rate (%) of pERK level
ENDPOINT: inhibition at 1 µM

1. C=CC(=O)N1CC2(CCN(c3nc(N4CCC5(CC4)CN(CCOC)C5)nc4c(OCC(F)(F)F)c(-c5c(C)ccc6[nH]ncc56)c(C5CC5)cc34)CC2)C1 ... > 90%
2. C=CC(=O)N1CC2(CCN(c3nc(N4CC[C@@H](N5CC(F)(F)C5)C4)nc4c(OCC(F)(F)F)c(-c5c(C)ccc6[nH]ncc56)c(C5CC5)cc34)CC2)C1 ... 50 to 90%
3. C=C(F)C(=O)N1CC2(CCN(c3nc(OC4CCN(CCOC)CC4)nc4c(OCC(F)(F)F)c(-c5c(C)ccc6nc[nH]c(=O)c56)c(C5CC5)cc34)CC2)C1 ... > 90%

Each compound below has a reported value. Please supply its inhibition at 1 µM.
1. C=CC(=O)N1CC2(CCN(c3nc(OC[C@@H]4COCCN4CCOC)nc4c(OCC(F)(F)F)c(-c5c(C)ccc6[nH]ncc56)c(C5CC5)cc34)CC2)C1
2. C=C(F)C(=O)N1CC2(CCN(c3nc(OC4CN(CCOC)C4)nc4c(OCC(F)(F)F)c(-c5c(C)ccc6[nH]ncc56)c(C5CC5)cc34)CC2)C1

Reply:
1: > 90%; 2: > 90%

Please supply inhibition at 1 µM for each of the following items, keeping them in order.
1. C=CC(=O)N1CC2(CCN(c3nc(N4CC(N5C6CCC5CC6)C4)nc4c(OCC(F)(F)F)c(-c5c(C)ccc6[nH]ncc56)c(C=C)cc34)CC2)C1
2. C=CC(=O)N1CC2(CCN(c3nc(OC4CCC5(CC4)CN(C)C5)nc4c(OCC(F)(F)F)c(-c5c(C)ccc6[nH]ncc56)c(C5CC5)cc34)CC2)C1
3. C=CC(=O)N1CC2(CCN(c3nc(N4CC5(CC(N(C)C)C5)C4)nc4c(OCC(F)(F)F)c(-c5c(C)ccc6[nH]ncc56)c(C5CC5)cc34)CC2)C1
4. C=C(C(=O)N1CC2(CCN(c3nc(OC4CCN(CCOC)CC4)nc4c(OCC(F)(F)F)c(-c5c(C)ccc6[nH]ncc56)c(C5CC5)cc34)CC2)C1)n1ccnc1

Reply:
1: > 90%; 2: 50 to 90%; 3: > 90%; 4: 50 to 90%

Answer for every listed entry: what is its inhibition at 1 µM? The entries follow.
1. C=CC(=O)N1CC2(CCN(c3nc(O[C@H]4C[C@@H]5C[C@H]4CS5(=O)=O)nc4c(OCC(F)(F)F)c(-c5c(C)ccc6[nH]ncc56)c(C5CC5)cc34)CC2)C1
2. C=CC(=O)N1CC2(CCN(c3nc(N4CC5(CC(N6CCC(C)C6)C5)C4)nc4c(OCC(F)(F)F)c(-c5c(C)ccc6[nH]ncc56)c(C5CC5)cc34)CC2)C1 (centres unmarked)

Reply:
["> 90%", "> 90%"]
